The measurements presented in this section are drawn from the MegaScale stability set (Tsuboyama et al. 2023).

B1: EHEE_rd2_0601 (parent)
chain: TYTYKLTDEEASRRAEDEWRNRGYDVRVRNNNGTWEVEVR

Variants of: B1
Experiment: folding stability dG (cDNA display proteolysis); higher = more stable
Conditions: PBS, room temperature
observation_type: folding stability dG (kcal/mol)
A number alone suffices; assume kcal/mol.

Please review the following examples before continuing.
Query block: Give the measured folding stability dG for `R13T`
Result block: 0.582

Query block: Give the measured folding stability dG for `R14P`
Result block: -0.495

Continuing:
Query block: Give the measured folding stability dG for `Y2Q`
Result block: 1.04

Query block: Give the measured folding stability dG for `N32Q`
Result block: 1.05

Query block: Give the measured folding stability dG for `S12H`
Result block: -0.243

Query block: Give the measured folding stability dG for `S12P`
Result block: -0.764

Query block: Give the measured folding stability dG for `E9S`
Result block: 0.61

Query block: Give the measured folding stability dG for `E10R`
Result block: 1.06

Query block: Give the measured folding stability dG for `W35M`
Result block: -0.533
